subject_of_test: full length cynomolgus monkey DLL4 (cynomolgus monkey)
run_description: FMAT, hybridoma supernatant, 293T cells with cynomolgus DLL4
# Lookup of reported FL1 x count keyed by entry
Please give the numeric answer without any surrounding text.

Below, 2 binders whose answers are already recorded.
{"binder": "1D4 (antibody, IgG4, V domains shown) VH: QLQLQESGPGLVKPSETLSLTCTVSGGSISSSSYYWGWIRQPPGKGLEWIGSFYYSRSTYYNPSLKSRVTISVDTSKNQFSLKLSSVTAADTAVHYCARGSIAVPDAFDIWGQGTMVTVSS VL: SYELTQPPSVSVSPGQTASITCSGDKLGDKFACWYQQKPGHSPVLVVYQDNKRPSGIPERFSGSNSGNSATLTISGTQAMDEADYYCQAWDSNTAVFGGGTKLTVL", "FL1 x count": "1.21e+06"}
{"binder": "9G8 (antibody, IgG4, V domains shown) VH: QLQLQESGPGLVKPSETLSLSCTVSGGSISSSSSYWGLIRQPPGKGLEWIGSIYYSGSTYYSPSLKSRVSISVDTSKNQFSLKLSSVTAADTAVYFCARQGYGGHPDVFDIWGQGTMVTVSS VL: SSELTQSPSVSVSPGQTARITCSGDKLGDVYVCWYQQKTGQSPVLVIYEDTKRPSGIPERFSGSNSGNTATLTISGTQVMDEADYYCQAWDSTTAVIFGGGTKLTVL", "FL1 x count": "1.41e+06"}

# context switch: different binder, same FL1 x count
Request: Return reported FL1 x count; argument: 3A7 (antibody, IgG4, V domains shown) VH: EVQVVESGGGLVQPGGSLRLSCEASGFTFSNYWMIWVRQAPGKGLEWVASIKEDGSEKYYVDSVKGRFTISRDNAKSSLYLQMNSLRAEDTAVYYCVRDWELRGHYYYHGMDVWGQGTTVTVSS VL: DIQMTQSPSSLSASVGDRVTITCRASLDIRNDLGWFLQKPGKAPKRLIYAASSLQSGVPSRFSGSGSGTEFTLTINSLQPEDFATYYCLQHRNYPFTFGPGTKVDFK
Response: 1.2e+06
